These data points were gathered from ChEMBL document CHEMBL5291721.

targetUnderTest: Voltage-gated inwardly rectifying potassium channel KCNH2 (Homo sapiens)
Sequence (Q12809 whole entry): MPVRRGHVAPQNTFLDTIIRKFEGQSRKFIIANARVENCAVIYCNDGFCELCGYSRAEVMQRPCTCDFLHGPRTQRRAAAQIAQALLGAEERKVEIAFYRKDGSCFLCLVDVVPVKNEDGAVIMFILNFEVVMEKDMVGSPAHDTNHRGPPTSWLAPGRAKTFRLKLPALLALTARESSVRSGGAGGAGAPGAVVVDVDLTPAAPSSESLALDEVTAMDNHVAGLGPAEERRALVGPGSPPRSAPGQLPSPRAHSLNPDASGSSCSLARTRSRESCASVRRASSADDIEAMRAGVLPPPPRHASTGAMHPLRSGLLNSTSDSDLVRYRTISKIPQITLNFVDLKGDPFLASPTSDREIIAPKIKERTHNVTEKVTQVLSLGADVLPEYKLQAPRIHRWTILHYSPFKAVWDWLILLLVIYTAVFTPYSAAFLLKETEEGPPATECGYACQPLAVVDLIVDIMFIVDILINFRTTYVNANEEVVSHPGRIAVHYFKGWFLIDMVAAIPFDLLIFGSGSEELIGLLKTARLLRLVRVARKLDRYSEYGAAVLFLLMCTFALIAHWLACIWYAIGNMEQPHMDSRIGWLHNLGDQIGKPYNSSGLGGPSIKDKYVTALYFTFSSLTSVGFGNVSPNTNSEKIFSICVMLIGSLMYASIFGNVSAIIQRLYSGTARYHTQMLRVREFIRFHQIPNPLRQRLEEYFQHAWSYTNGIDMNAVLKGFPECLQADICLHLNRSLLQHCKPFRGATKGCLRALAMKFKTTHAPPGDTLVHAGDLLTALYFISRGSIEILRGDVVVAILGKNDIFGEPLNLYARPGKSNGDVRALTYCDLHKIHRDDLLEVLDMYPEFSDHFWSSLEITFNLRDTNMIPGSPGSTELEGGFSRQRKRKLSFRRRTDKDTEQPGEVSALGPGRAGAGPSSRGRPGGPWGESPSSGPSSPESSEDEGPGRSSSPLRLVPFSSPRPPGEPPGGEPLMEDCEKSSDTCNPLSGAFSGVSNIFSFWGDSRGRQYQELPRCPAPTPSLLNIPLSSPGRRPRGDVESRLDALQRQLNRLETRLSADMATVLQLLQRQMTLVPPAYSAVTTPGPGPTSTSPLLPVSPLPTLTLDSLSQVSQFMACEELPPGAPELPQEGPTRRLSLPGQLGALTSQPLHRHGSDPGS
Format: functional
protocolConditions: read-out: AC50
I'd appreciate it if you could supply AC50 values for the items below.

Task: Which AC50 is listed for Cc1cc(CCN2CCN(c3cccc(Cl)c3)CC2)n[nH]1 [MEPIPRAZOLE] ?
Output: 2.71 µM

Task: Now consider O=C(O)c1cc(O)c2c3nc4ccccc4oc-3cc(=O)c2n1 .
Output: > 30 µM

Task: Subsequent entry: c1ccc2[nH]c(-c3cscn3)nc2c1
Output: > 30 µM

Task: Moving on to CCCC[C@H](C)C[C@H](O)/C=C/[C@H]1[C@H](O)CC(=O)[C@@H]1CCCC/C=C/C(=O)O
Output: > 30 µM

Task: Can you handle NS(=O)(=O)c1cc2c(cc1C(F)(F)F)NC(Cc1ccccc1)NS2(=O)=O (stereo not given) [BENDROFLUMETHIAZIDE] next?
Output: > 30 µM

Task: Continue with CS(=O)(=O)OCCCCOS(C)(=O)=O
Output: > 30 µM

Task: And CC(=O)c1ccc2c(c1)N(CCCN1CCC(CCO)CC1)c1ccccc1S2 ?
Output: 0.5 µM

Task: Similarly, O=C(O)c1cc(=O)c2ccccc2o1 ?
Output: > 30 µM

Task: CCN(CC)C(=O)c1cccnc1 [NIKETHAMIDE] , same question.
Output: > 30 µM

Task: Repeat with CCCN(CC)C(CC)C(=O)Nc1c(C)cccc1C (stereo not given)
Output: > 30 µM

* * *

Each entry below carries its measured AC50, system: Sodium-dependent noradrenaline transporter (Homo sapiens, UniProt P23975).
Sequence (P23975 whole entry): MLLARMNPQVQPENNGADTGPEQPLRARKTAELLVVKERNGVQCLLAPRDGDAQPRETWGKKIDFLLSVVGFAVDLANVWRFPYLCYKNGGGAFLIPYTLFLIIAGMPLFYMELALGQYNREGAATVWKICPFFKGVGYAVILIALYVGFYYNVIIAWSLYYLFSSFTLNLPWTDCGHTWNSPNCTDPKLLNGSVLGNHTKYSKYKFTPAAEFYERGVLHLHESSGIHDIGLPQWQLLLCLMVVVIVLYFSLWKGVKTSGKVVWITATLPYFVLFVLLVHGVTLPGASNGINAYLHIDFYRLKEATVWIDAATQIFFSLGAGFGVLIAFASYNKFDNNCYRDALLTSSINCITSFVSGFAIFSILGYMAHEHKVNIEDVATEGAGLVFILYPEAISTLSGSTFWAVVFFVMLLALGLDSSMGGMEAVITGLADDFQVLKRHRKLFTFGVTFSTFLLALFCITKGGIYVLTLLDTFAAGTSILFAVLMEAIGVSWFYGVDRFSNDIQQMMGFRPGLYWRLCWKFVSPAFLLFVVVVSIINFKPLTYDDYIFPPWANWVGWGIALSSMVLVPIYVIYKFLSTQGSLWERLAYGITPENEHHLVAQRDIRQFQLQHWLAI

Task: # get_value(readout= AC50, system= Sodium-dependent noradrenaline transporter (Homo sapiens, UniProt P23975)) for Clc1ccc2c(c1)C(c1ccccc1)=NCc1nncn1-2 [ESTAZOLAM]
Output: > 30 µM

Task: Please give the result for CCCN(CCC)CCc1cccc2c1CC(=O)N2 [ROPINIROLE] too.
Output: > 30 µM

Task: Proceed to COc1ccc(/C=C/C(=O)Nc2ccccc2C(=O)O)cc1OC
Output: > 30 µM

Task: Another molecule: CC(=O)OCC[N+](C)(C)C [ACETYLCHOLINE]
Output: > 30 µM

Task: Lookup CCc1oc2ccccc2c1C(=O)c1cc(Br)c(O)c(Br)c1 [BENZBROMARONE]
Output: > 30 µM

Task: How about CC[C@@H](CO)NC(=O)[C@@H]1C=C2c3cccc4[nH]cc(c34)C[C@H]2N(C)C1 [METHYLERGONOVINE] ?
Output: > 30 µM

Task: Now give it for O=C(CCCN1CCC(n2c(O)nc3ccccc32)CC1)c1ccc(F)cc1 [BENPERIDOL] too.
Output: 12 µM

Task: And for CC[C@H]1OC(=O)[C@H](C)[C@@H](O[C@H]2C[C@@](C)(OC)[C@@H](O)[C@H](C)O2)[C@H](C)[C@@H](O[C@@H]2O[C@H](C)C[C@H](N(C)C)[C@H]2O)[C@](C)(OC)C[C@@H](C)C(=O)[C@H](C)[C@@H](O)[C@]1(C)O [CLARITHROMYCIN] ?
Output: > 30 µM

Task: Here is the next molecule: C=CC1=C(C(=O)O)N2C(=O)[C@@H](NC(=O)/C(=N\OCC(=O)O)c3csc(N)n3)[C@H]2SC1 [CEFIXIME]
Output: > 30 µM

Task: Check O=C1Nc2ccc(Cl)cc2C(c2ccccc2)=NC1O (stereo unspecified) [OXAZEPAM] too.
Output: > 10 µM

Task: Same lookup for CCC(C)(Oc1ccc(C2(c3ccc(OC(C)(CC)C(=O)O)cc3)CCCCC2)cc1)C(=O)O (stereo unspecified) [CLINOFIBRATE] , please.
Output: > 30 µM

Task: Item: CCCCCCOC(=O)CCC(=O)CN [HEXAMINOLEVULINATE]
Output: > 30 µM

Task: Would you mind doing COc1c(O[C@@H]2O[C@H](CO)[C@@H](O)[C@H](O)[C@H]2O)cc2c(c1OC)-c1ccc(SC)c(=O)cc1[C@@H](NC(C)=O)CC2 [THIOCOLCHICOSIDE] as well?
Output: > 30 µM

Task: Note, next up: CCC(=O)OCC(=O)[C@@]1(OC(=O)CC)[C@@H](C)C[C@H]2[C@@H]3CCC4=CC(=O)C=C[C@]4(C)[C@@]3(F)[C@@H](O)C[C@@]21C [BETAMETHASONE DIPROPIONATE]
Output: > 30 µM

Task: Try this molecule too: CNC(=O)Oc1ccc2c(c1)[C@]1(C)CCN(C)[C@@H]1N2C [PHYSOSTIGMINE]
Output: > 30 µM

Task: What would you report for Nc1nc2c(c(=O)[nH]1)N(C=O)C(CNc1ccc(C(=O)N[C@@H](CCC(=O)O)C(=O)O)cc1)CN2 (stereo partly specified) [LEUCOVORIN] ?
Output: > 30 µM

Task: For CC[N+]1(C)CCCC(OC(=O)C(O)(c2ccccc2)c2ccccc2)C1 (stereo unspecified) [PIPENZOLATE] then?
Output: > 30 µM

Task: Follow-up entry: Cc1cnc(NC(=O)C2=C(O)c3ccccc3S(=O)(=O)N2C)s1 [MELOXICAM]
Output: > 10 µM

Task: How about CC[C@H]1OC(=O)[C@H](C)[C@@H](O[C@H]2C[C@@](C)(OC)[C@@H](O)[C@H](C)O2)[C@H](C)[C@@H](O[C@@H]2O[C@H](C)C[C@H](N(C)C)[C@H]2O)[C@](C)(O)C[C@@H](C)/C(=N\OCOCCOC)[C@H](C)[C@@H](O)[C@]1(C)O [ROXITHROMYCIN] ?
Output: > 30 µM

Task: Likewise for O=C(O)c1cc(O)c2c3nc4ccccc4oc-3cc(=O)c2n1 [PIRENOXINE] ?
Output: > 30 µM

Task: Now consider C#Cc1cccc(Nc2ncnc3cc(OCCOC)c(OCCOC)cc23)c1 [ERLOTINIB] .
Output: > 30 µM

Task: Next entry: [H]/N=C(\N/C(=N/[H])NCCCCCCNC(=N)NC(=N)Nc1ccc(Cl)cc1)Nc1ccc(Cl)cc1 [CHLORHEXIDINE]
Output: 0.409 µM

Task: Try this molecule too: O=C1CN2Cc3c(ccc(Cl)c3Cl)N=C2N1 [ANAGRELIDE]
Output: > 30 µM

Task: Same read-out for C[C@@H]1CCC[C@H](C)N1NC(=O)c1ccc(Cl)c(S(N)(=O)=O)c1 [CLOPAMIDE] ?
Output: > 30 µM

Task: Same question, N#C[C@@H]1CCCN1C(=O)CNC12CC3CC(CC(O)(C3)C1)C2 [VILDAGLIPTIN] this time
Output: > 30 µM

Task: Could you do the same for CCN(CC)C(=O)C1CN2CCc3cc(OC)c(OC)cc3C2CC1OC(C)=O (stereo unspecified) [BENZQUINAMIDE] , please?
Output: > 30 µM

Task: Can you handle COc1cc(OC)c(C(=O)CCCN2CCCC2)c(OC)c1 [BUFLOMEDIL] next?
Output: > 30 µM

Task: And what about the molecule NC(=O)c1ncn([C@@H]2O[C@H](CO)[C@@H](O)[C@H]2O)n1 [RIBAVIRIN] ?
Output: > 10 µM

Task: Cool, now CN(C)c1cc(CNCC(C)(C)C)c(O)c2c1C[C@H]1C[C@H]3[C@H](N(C)C)C(O)=C(C(N)=O)C(=O)[C@@]3(O)C(O)=C1C2=O [OMADACYCLINE]
Output: > 30 µM

Task: Could you do the same for Cc1ccc(NC(=O)C2(c3ccc4c(c3)OC(F)(F)O4)CC2)nc1-c1cccc(C(=O)O)c1 [LUMACAFTOR] , please?
Output: > 30 µM

Task: Please do the same for CC(C)c1cc2c(cc1S(=O)(=O)O)[C@@]1(C)CCC[C@@](C)(C(=O)O)[C@@H]1CC2 [ECABET] as well.
Output: > 30 µM
